# Target Or Test System: rat TIMP-1 (rat, UniProt P30120 24-217)
# Sequence (P30120 24-217 limits assumed): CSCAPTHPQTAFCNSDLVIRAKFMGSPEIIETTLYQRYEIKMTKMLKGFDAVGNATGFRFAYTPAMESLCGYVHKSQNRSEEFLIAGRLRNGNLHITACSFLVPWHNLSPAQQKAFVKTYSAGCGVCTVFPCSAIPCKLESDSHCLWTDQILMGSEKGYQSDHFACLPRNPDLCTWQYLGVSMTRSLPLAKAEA
# Experiment Notes: cell-based or functional assay
Value Kind: IC50 in rat protease assay

Write down IC50 in rat protease assay measured for item MS-BW-55 (Fab, V domains shown, Fab, FLAG + Strep-tag II; not tied by name) VH: QVQLVQSGAEVKKPGSSVKVSCKASGGTFSSYAISWVRQAPGQGLEWMGWINPNSGGTNYAQKFQGRVTMTRDTSISTAYMELSSLRSEDTAVYYCARITYIGYDFWGQGTLVTVSS VL: DIALTQPASVSGSPGQSITISCTGTSSDVGGYNYVSWYQQHPGKAPKLMIYDVSNRPSGVSNRFSGSKSGNTASLTISGLQAEDEADYYCQSRDLYYVYYVFGGGTKLTVLG ~100 nM
